Listing of entries alongside the reported Kd.
# assayed target: T1, LILRB2 (antigen in solution, Octet RED 96) (UniProt Q8N423 22-460, limits assumed)
# T1 construct: also called LILRB2 solution
# assay text: BLI (Octet RED 96), antibody on protein A biosensor, LILRB2 in solution
# Method: Affinity measurement of blocking antibodies. Affinities of the 5 blocking antibodies were measured on Octet RED 96 system.
The reply should contain only the number, in nM.

B2-16 (antibody, V domains shown, also called B2-16_HC; B2-16_LC) VH: QVQLVQSGAEVKKPGSSVKVSCKASGGTFSSYAISWVRQAPGQGLEWMGGIIPIFGTANYAQKFQGRVTITADESTSTAYMELSSLRSEDTAVYYCASGIIPDNPYGMDVWGQGTMVSVSS VL: DIVMTQSPLSLPVTLGQPASISCTSSQSLVYSDGNTYLNWFHQRPGQSPRRLFYKVSNRASGVPDRFSGSGSGTDFTLKISRVEAEDLGVYYCMQGTHWPVTFGQGTRLEIK; 7.45

Kindly review the next binder as well.
QUERY: Identify Kd associated with the binder B2-7 (antibody, V domains shown, also called B2-7_HC; B2-7_LC) VH: EVQLVESGGGVVQPGRSLRLSCAASGFTISSYGMHWVRQAPGKGLEWVAVISYDGSNKYYADSVKGRFTISRDNSKNTLYLQMNSLRVEDTAVYYCAKDLLLRYFDWSPKYYYNGMDVWGQGTMVTVSS VL: QSVLTQPPSVSVAPGKTARITCGGNNIGSKSVHWYQQKPGQAPVLVVYDDSDRPSGIPERFSGSNSGNTATLTISRVEAGDEADYYCQVWDSSSDHPGVFGTGTKVTVL
RESULT: 15.2

The measurements presented in this section are drawn from patent US20230068663A1.
